- Test system: CAKI-1 renal
- assay_summary: NCI tumour cell line growth inhibition, 48 h
recorded_endpoint: TGI

Solved cases (2 shown):
CC(=O)c1sc(-c2nc(C)c(C(=O)/C=C\c3ccc(/C=C\C(=O)c4sc(-c5nc(C)c(C(C)=O)s5)nc4C)cc3)s2)nc1C = > 100 µM
COc1cccc(-n2c3nc(=O)n(C)c(=O)c-3nc3ccccc32)c1 = > 100 µM

Challenge: What TGI value was documented for this molecule, "COc1cc2ccc3c4cc(OC)c(OC(C)C)cc4cnc3c2cc1OC" ?
Response given: > 100 µM

---

- Tested on: BT-549 breast
- assay_summary: NCI tumour cell line growth inhibition, 48 h; in the data active = GI50 below about 0.43 µM; inactive = the rest
Hello, when you answer, please use one of the following outcomes: active, inactive

CC(=O)O[C@H](C[C@H](C(C)C)N(C)C(=O)[C@@H](NC(=O)[C@H]1CCCCN1C)C(C)C)c1nc(C(=O)N[C@@H](Cc2ccccc2)C[C@H](C)C(=O)O)c(CCOCc2ccccc2)s1 = active
O=C(Nc1ccc(CO)cc1)c1coc2ccccc2c1=O = inactive
CCOC(=O)CNC(=O)c1ccccc1Nc1ccnc(C(F)(F)F)c1 = inactive
COCCOc1cnc2ccn([C@H](C)c3nnc4c(F)cc(-c5cnn(C)c5)cn34)c(=O)c2c1 = inactive
O=C(CSC(c1ccccc1)c1ccccc1)N/N=C/c1ccc(Cl)cc1Cl = inactive
[Au+].[Au+].[Au+].[c-]1nccn1Cc1ccccc1.[c-]1nccn1Cc1ccccc1.[c-]1nccn1Cc1ccccc1 = inactive

Challenge: For this compound, state the assay outcome: "CCc1ccccc1NC(=O)c1sc2nc3c(cc2c1N)C(=O)CCC3"
Response given: inactive

Challenge: Next record, please: "C[C@]12CC[C@@H]3c4ccc(O)cc4CC[C@H]3[C@@H]1CC[C@@H]2NS(=O)(=O)c1cccc(F)c1"
Response given: inactive

Challenge: Next record, please: "N#C/C(=C/N1CCN(C(=O)c2ccco2)C1=S)C(=O)c1ccccc1"
Response given: inactive

Challenge: Next record, please: "Nc1nc(SN=Nc2ccc(S(N)(=O)=O)cc2)c2[nH]cnc2n1"
Response given: inactive

Challenge: Next record, please: "COc1ccc(-c2c[nH]c(=S)n2-c2ccc(OC)cc2)cc1"
Response given: inactive

Challenge: Next record, please: "COc1cc2c3c(n(CCCN(C)C)c(=O)c2cc1OC)-c1ccccc1C3=O"
Response given: inactive

Challenge: Next record, please: "Cc1cn2c(/C=C3\C(=O)N(C)c4ccc(O)cc43)c(C)nc2s1"
Response given: inactive

Challenge: Next record, please: NC(CS/C(Cl)=C/Cl)C(=O)O (centres undefined)
Response given: inactive

---

- Test system: HL-60(TB) leukemia
- assay_summary: NCI tumour cell line growth inhibition, 48 h
Could you please report measured TGI for the items listed next?

O=C(NC(Cc1ccc(I)cc1)C(=O)O)c1ccc(Br)cc1 (centres undefined) = > 100 µM
O=C(Nc1ccc(Br)cc1)c1ccc(Cl)c(Cl)c1 = 7.37 µM
O=C1OC2(OC2c2ccccc2)c2ccccc21 (centres undefined) = > 100 µM
O=C1NC(N/N=C/C(O)C(O)C(O)CO)=N/C1=C\c1ccco1 (centres undefined) = > 100 µM
Cc1cc(N/N=C/c2nc(-c3ccc(Br)cc3)oc2C)c2cc(Br)ccc2n1 = 6.28 µM

The following compounds each have a reported value; give each one's TGI.
1. CCCCCCCCCCCCCCCCCC(=O)O[C@H](COC(=O)CCCCCCCCCCC)COC(=O)CCCCCCCCCCCCCCC
2. Cc1ccc(S(=O)(=O)OCC(=O)O)cc1
3. COc1ccc2c(c1)[C@@]13CCCC[C@H]1[C@@H](C2)N(C)CC3=O

Response given:
> 100 µM
> 100 µM
> 100 µM

The following compounds each have a reported value; give each one's TGI.
1. COC(=O)N/N=C(\C)C(CN1CCCCC1)C(C1=C(O)c2ccccc2OC1)c1ccccc1 (centres undefined)
2. COc1cc2ccc3c4cc(OC)c(OC(C)C)cc4cnc3c2cc1OC
3. COc1ccc(C(=O)COc2cccc(/C=C3\Oc4ccc5ccccc5c4C3=O)c2)cc1
4. Cc1ccc2c(c1)[nH]c1cc(C(F)(F)F)ccc1[p+]2=O (centres undefined)
5. Nc1ccn(C2(CO)C=C(CO)C(O)C2O)c(=O)n1 (centres undefined)
6. Cc1ccc(/C(O)=C/C(=O)C(=O)/C=C(\O)c2ccc(C)cc2C)c(C)c1

Response given:
["> 100 µM", "> 100 µM", "18.7 µM", "56.2 µM", "> 25.8 µM", "0.58 µM"]

The following compounds each have a reported value; give each one's TGI.
1. CC(=O)C1=C(C)NC2C=CC=CN12 (centres undefined)
2. NC(N)=NCCCCCNc1noc(Cc2c[nH]c3cc(Br)ccc23)n1
3. CC(=O)c1ccc2c3c1[C@@H]1O[C@@H]1c1cccc(c1-3)[C@@H]1O[C@H]21

Response given:
["> 100 µM", "28.8 µM", "35 µM"]

The following compounds each have a reported value; give each one's TGI.
1. Oc1cc(C2OCCCO2)cc(O)c1O
2. CCOC(=O)/C=C(/C(=O)OCC)n1ccc(N)nc1=O

Response given:
> 100 µM
> 100 µM

---

- System: HS 578T breast
- assay_summary: NCI tumour cell line growth inhibition, 48 h
recorded_endpoint: TGI (µM)
One number for each entry, in µM.

Cc1cc(N/N=C/c2nc(-c3ccc(Br)cc3)oc2C)c2cc(Br)ccc2n1 = 26.2
COc1ccc(-c2oc3cc(O)c(OC)c(O)c3c(=O)c2OC)cc1O = 0.715

Here's the next entry for you.
Challenge: What TGI value was documented for this molecule, "Cc1ccc(/C(O)=C/C(=O)C(=O)/C=C(\O)c2ccc(C)cc2C)c(C)c1" ?
Response given: 5.15

---

- System: IGROV1 ovarian
- assay_summary: NCI tumour cell line growth inhibition, 48 h
Could you please report measured TGI for the items listed next?

Solved cases (3 shown):
CCCCC1(CN2CCOCC2)S/C(=N/c2nc(CC(=O)OCC)cs2)NC1=O (stereo not given) = > 100 µM
COc1ccc2nc3ccccc3c(NCCCCCCN(CCCl)CCCl)c2c1 = 3.85 µM
O=C(Nc1ccc(-c2ccccc2)cc1)C1CCN(S(=O)(=O)c2ccccc2Cl)CC1 = > 100 µM

The following compounds each have a reported value; give each one's TGI.
1. CC(=O)N1N=C(c2ccc3ccccc3c2O)CC1C(=O)c1ccco1 (stereo not given)
2. CCOC(=O)/C1=C(\C)N(c2ccc(C)cc2)C(=O)c2ccccc2C(=O)c2c(OC(C)=O)ccc(OC(C)=O)c21
3. COc1cc2cccc(N=Cc3cccc(OC)c3OC(C)C)c2cc1OC
4. N#C/C(=C\n1ccc(=O)[nH]c1=S)C(N)=O
5. COCCOc1cnc2ccn([C@H](C)c3nnc4c(F)cc(-c5cnn(C)c5)cn34)c(=O)c2c1

Response given:
1: > 100 µM; 2: 36.6 µM; 3: 70.2 µM; 4: > 100 µM; 5: > 100 µM

The following compounds each have a reported value; give each one's TGI.
1. COC(=O)/C(C=O)=C/Sc1ccccc1
2. Cc1ccc2nc(Cl)c(/C=N/N3C(=O)/C(=C/c4ccccc4S)N=C3c3ccccc3)cc2c1
3. CCCCCCCCCCCCCCCCCC(=O)O[C@H](COC(=O)CCCCCCCCCCC)COC(=O)CCCCCCCCCCCCCCC
4. COC(=O)/C(C#N)=C1\CCC(O)N1 (stereo not given)
5. COC(=O)OCC1OC(N2C(=O)NC(=O)C(Br)C2N=[N+]=[N-])CC1OC(=O)OC (stereo not given)
6. Cc1cn(C(Cc2ccccc2)OCCO)c(=O)[nH]c1=O (stereo not given)
7. COC(=O)C1=CC(=O)OC1(OO)c1ccccc1 (stereo not given)

Response given:
28.8 µM
> 100 µM
> 100 µM
> 100 µM
> 100 µM
> 100 µM
> 100 µM

The following compounds each have a reported value; give each one's TGI.
1. Cc1cc(NS(=O)(=O)c2ccc(Nc3c4ccccc4nc4c(C(=O)NCCN(C)C)cccc34)cc2)no1
2. COc1ccc(O)cc1
3. OCC1OC(n2cnc3c(Cl)nc(Nc4ccccc4)nc32)CC1O (stereo not given)
4. Nc1nc(CCl)nc(Nc2ccccc2)n1
5. CC1(CF)SCc2nc3ccccc3n21 (stereo not given)

Response given:
22.1 µM
> 100 µM
66.8 µM
36.1 µM
> 100 µM

---

- Tested on: TK-10 renal
- assay_summary: NCI tumour cell line growth inhibition, 48 h; in the data active means GI50 below about 0.43 µM; inactive means the rest
Hello, when you answer, please use one of the following outcomes: class 1 = active, class 0 = inactive

Use the examples below as a reference point.
CC(C)S(=O)(=O)c1ccccc1Nc1nc(Nc2cccc(NC(=O)CN)c2)ncc1Cl = class 1
COc1ccc2c(c1)C(C)Cc1c(ncnc1-n1c(C)nc3ccccc31)N2C (stereo not given) = class 0
COc1ccc(-c2ccc(/C=N/n3c(C)n[nH]c3=S)o2)c([N+](=O)[O-])c1 = class 0
Cc1cc(S(=O)(=O)N/N=C(\Sc2cc(Cl)c(C)cc2S(N)(=O)=O)c2ccc(Cl)cc2)c(Cl)cc1Cl = class 0

Challenge: For this molecule, state the assay outcome: "O=C(Nc1ccc(Br)cc1)c1ccc(Cl)c(Cl)c1"
Response given: class 0
